So I've got a bunch of compounds here, and I need their TGI values.
Tested on: KM20L2 colon
Test: NCI tumour cell line growth inhibition, 48 h

Please supply the value of reported TGI for the item CN(C)C(c1ccccc1)C(O)c1ccccc1 (centres undefined)
> 100 µM

Input C/C(=C1/CCC/C(=C(/C)c2ccccc2)C1=O)c1ccccc1 , output reported TGI.
> 100 µM

Fill in reported TGI for this entry: COc1cc2c(c(OC)c1)C1(CC(CC#N)C2)SCCS1 (centres undefined)
> 100 µM

Give the reported TGI for this compound. CCO/N=C(/N)c1ncn(Cc2ccccc2)c1NCC(OCC)OCC
> 100 µM

Supply reported TGI belonging to this compound: COc1ccc2c3c(coc13)C(CCC(=O)O)CC2 (centres undefined)
> 100 µM

Entry Clc1ccc(-c2c(C3=NCCCN3)nnn2-c2ccc(Cl)cc2)cc1 needs its TGI filled in; supply it.
> 100 µM

Please give measured TGI of the following entry: Cc1ccc2c(c1)CN(C(=O)CCC(=O)OCc1ccccc1)c1ccc(C)cc1CN2C(=O)CCC(=O)OCc1ccccc1
> 100 µM

Quote TGI reported for CC(=O)N1C/C(=C\c2ccc(N(C)C)cc2)C(=O)/C(=C/c2ccc(N(C)C)cc2)C1 please.
> 100 µM

Please report the measured TGI for COC(=O)C(=O)C(C(=O)C=C(C)C)C(=O)C(=O)Nc1ccc(C)cc1C (centres undefined)
> 100 µM

Look up and report measured TGI for this entry: COc1ccc(CNc2nc3cc(C(F)(F)F)ccc3nc2C)cc1OC
> 100 µM

For the compound COC(=O)C(=Cc1cc(OC)c(OC)c(OC)c1-c1cc2c(cc1C(C)=O)OCO2)C(=O)OC , give its measured TGI value.
62.8 µM

Annotate the compound N#CCC(=O)NC1C2CC3CC(C2)CC1C3 (centres undefined) with its measured TGI.
33.6 µM

# return recorded TGI for input COc1ccc(-c2cc(=O)c3ccccc3[nH]2)c(OC)c1
> 100 µM

# return recorded TGI for input CC(=O)O.[Au].c1ccc([PH+](c2ccccc2)c2ccccc2)cc1
35 µM

Please list TGI recorded for the compound CCOc1ccc2c(c1)[n+]([O-])c(-c1nc3ccccc3s1)c(N)[n+]2[O-]
> 100 µM

Identify measured TGI corresponding to CCOC(=O)CCn1[nH]c(=O)c(Cl)c(Cl)c1=O
> 100 µM

Find the measured TGI of Nc1ncn(C2CC(O)C(CO)O2)c(=O)n1 (centres undefined) and report it.
> 375 µM

Please give measured TGI of the following entry: CC(C)c1cc2c(O)c(c1)Cc1cc(C(C)C)cc(c1O)Cc1cc(C(C)C)cc(c1O)Cc1cc(C(C)C)cc(c1O)C2
> 100 µM

Could you please provide reported TGI for CCCCCCC(=O)C/C(=N/NC(N)=S)C(=O)NC1C2CC3CC(C2)CC1C3 (centres undefined) ? Thanks!
> 100 µM
